tested on: SF-539; assay: NCI tumour cell line growth inhibition, 48 h
The source made the active and inactive calls. No stated cut-off is given here; in the data, active = GI50 up to about 1.1 µM and inactive = higher.
Reported GI50 values follow for various molecules

molecule | GI50
COc1ccc(C2C(Cl)C(=O)N2NC(=O)c2ccccc2O)cc1OC (configuration not stated) | > 100 µM (inactive)
O=c1c2ccccc2nc(-c2ccc(Cl)cc2)n1O | 23.8 µM (inactive)
Oc1ccc(Cl)cc1/C=N/c1cnc2ccccc2c1 | 13.4 µM (inactive)
CN(C)CCCNC(=O)c1cc(NS(=O)(=O)c2ccc3c(c2)C(=O)c2ccccc2C3=O)cn1C | 42.8 µM (inactive)
COC(=O)c1c/c(=N\NC(=O)CC(=O)Nc2ccccc2OC)c2ccccc2o1 | > 100 µM (inactive)
CC1(C)CC(=O)C(=[N+]=[N-])C(=O)C1 | > 100 µM (inactive)
Cc1ccc([N+](=O)[O-])cc1S(=O)(=O)Nc1ccc(C(=O)/C=C/c2cccs2)cc1 | 27.2 µM (inactive)
Nc1ccc(-c2nc3cc(F)ccc3s2)cc1Br | > 41.5 µM (inactive)
O=C(c1ccco1)N(C(=O)N1CCC(c2ccccc2)CC1)c1ccccc1 | 74.5 µM (inactive)
Cc1cccc(C)c1NC(=O)CCC(=O)NNc1nnc(C)n1N | > 100 µM (inactive)
Nc1nc(N)c(NC(=O)CCCO)c(=O)[nH]1 | > 100 µM (inactive)
C=CCO/N=C(\OC(=O)c1ccc([N+](=O)[O-])cc1)c1ccccc1 | > 100 µM (inactive)
CC1C2(C)OC(=N)C(C#N)(C(c3ccccc3)O2)C1(C#N)C#N (configuration not stated) | 20.3 µM (inactive)
CC(=O)Oc1c(C)c2c(c3ncccc13)OC(C)C2 (configuration not stated) | 15 µM (inactive)
Cc1[nH]c2c(c1C)S(=O)(=O)c1cc3ccccc3nc1N2 | 6.81 µM (inactive)
O=C(O)C1(Cc2ccccc2)Cc2ccccc2C1 | > 100 µM (inactive)
COC(=O)C1CCc2c(OC)ccc(OC)c2C1=O (configuration not stated) | > 100 µM (inactive)
